protocol.summary: blockers of RIG-like receptor reporter activation – cell-based, Sendai virus stimulus, luciferase, 10K MLSCN set, TLR/RLR signaling modifier project, primary screen (AID 602276);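 further: firefly luciferase from ISG56 promoter only with Renilla not read in this screen; 0% = Sendai virus plus DMSO and 100% = medium plus DMSO without virus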
conditions: HEK293 RL24 IRF3 luciferase reporter, at 10 µM, stronger effect = higher value
readout: inhibition (%)

INSERT INTO assay_data (compound, readout, measured_number) VALUES
  ('O=C(COc1ccc(S(=O)(=O)NC2CCCCC2)cc1Cl)NCC1CCCO1 (stereo unspecified)', 'inhibition', 3.07),
  ('CC(C)CCNc1cc(=O)n(C)c(=O)n1C', 'inhibition', 0.49),
  ('COc1ccc(Cn2nnnc2C(c2cc3cc(C)cc(C)c3[nH]c2=O)N2CCOCC2)cc1 (stereo unspecified)', 'inhibition', 13.8),
  ('CN(C)CCCOC(=O)CCc1ccccc1', 'inhibition', -0.368),
  ('CCOC(=O)CSc1nc2c(c(-c3ccc(C)o3)c1C#N)CCCC2', 'inhibition', 10.2),
  ('CCN1CCCC1CN=Cc1c(O)n(-c2ccccc2)c(=O)c2ccccc12 (stereo unspecified)', 'inhibition', -6.81),
  ('CCCc1cc(=O)[nH]c(/N=C(\N)Nc2ccccc2)n1', 'inhibition', 12.3),
  ('COC(=O)CS(=O)(=O)c1nnc([C@H](Cc2ccccc2)NC(=O)OC(C)(C)C)o1', 'inhibition', 15.1),
  ('CCOc1ccc(S(=O)(=O)n2nc(C)cc2C)c2ccccc12', 'inhibition', -0.884),
  ('COC(=O)c1ccc(NC(=O)CN2CCN(c3ccc(Cl)cc3)CC2)cc1', 'inhibition', 20.2),
  ('Cc1c(NC(=O)c2noc3c2CCc2ccccc2-3)c(=O)n(-c2ccccc2)n1C', 'inhibition', 2.37);

====

system.tested: Voltage-gated potassium channel subunit beta-2 (Rattus norvegicus) (UniProt P62483)
Sequence (P62483 whole entry, looked up): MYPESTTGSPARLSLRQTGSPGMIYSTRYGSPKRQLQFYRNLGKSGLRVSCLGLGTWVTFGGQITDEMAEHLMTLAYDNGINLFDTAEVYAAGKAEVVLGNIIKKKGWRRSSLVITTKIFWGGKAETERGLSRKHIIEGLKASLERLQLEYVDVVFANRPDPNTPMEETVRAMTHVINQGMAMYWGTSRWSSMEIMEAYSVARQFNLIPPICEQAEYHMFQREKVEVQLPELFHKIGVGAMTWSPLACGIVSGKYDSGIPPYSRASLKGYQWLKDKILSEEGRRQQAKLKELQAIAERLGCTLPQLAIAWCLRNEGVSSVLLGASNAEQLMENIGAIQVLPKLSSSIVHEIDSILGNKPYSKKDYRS
protocol.summary: inhibitors of rat Kvbeta2 reductase activity – biochemical, NADPH fluorescence, primary screen (AID 622);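 further: slope of raw intensity against log time taken from 70 to 1610 s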
conditions: recombinant KvBeta, 4-cyanobenzaldehyde reduction, at 10 µM, stronger effect = higher value
Active and inactive are the calls of the source.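 Rule for the calls: active = fluorescence slope higher than the sample average by over 3 SD (cut at about -0.22 in these data, passing the limit was not always enough); inactive = the rest.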
Recorded fluorescence slope by entry
readout: fluorescence slope

INSERT INTO results (compound, result) VALUES
  ('CCOCC(=O)Nc1nc2c(s1)C(=O)CC(C)(C)C2', '-0.541 (inactive)'),
  ('COc1ccc(CCNC(=O)c2ccncc2)cc1OC', '-0.499 (inactive)'),
  ('CCOC(=O)c1c(N)sn(-c2ccccc2)c1=S', '-0.37 (inactive)'),
  ('O=C(Oc1cccc2cccnc12)c1cccc(-n2cnnn2)c1', '-0.494 (inactive)'),
  ('O=C(NCC1CCCO1)C1CCC(CNS(=O)(=O)c2ccccc2)CC1 (stereo unspecified)', '-0.499 (inactive)'),
  ('COc1cccc(C2=NOC(C(=O)N3CCc4ccccc4C3)C2)c1 (stereo unspecified)', '-0.605 (inactive)'),
  ('Cc1nc2ccc(Br)cn2c1NC(C)(C)C', '-0.531 (inactive)'),
  ('O=C(CSc1n[nH]c(-c2cccs2)n1)N1CCN(S(=O)(=O)c2ccccc2)CC1', '-0.639 (inactive)'),
  ('CN(C)c1nc(SCCOC(=O)c2ccccc2)nc(N(C)C)n1', '-0.385 (inactive)'),
  ('CCOC(=O)C1CCCN(Cc2nc(N)nc(Nc3ccc(C)cc3)n2)C1 (stereo unspecified)', '-0.438 (inactive)'),
  ('CCn1c(SCC(=O)Nc2ccc(C(=O)OC)cc2)nnc1-c1cccs1', '-0.379 (inactive)');

====

protocol.summary: reduction of polyQ htt aggregates in cells – imaging, exon1htt(103Q)mCFP cells, high-content imaging, primary screen (AID 483);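 further: compound exposure lasted 3 days before fixation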
conditions: exon1htt(103Q)mCFP cell line, aggregate imaging, at 2 µM; stronger effect = higher value
Quick reference: inhibition of aggregation of the listed items.
readout: inhibition of aggregation (%)

INSERT INTO measurements (compound, measured_number) VALUES
  ('C=CCn1c(CC#N)nnc1N1CCOCC1', -15),
  ('O=C(CSc1nc2ccccc2s1)N1CCOCC1', -12.6),
  ('CC(=O)C(Sc1ncnc2c1nnn2-c1ccc(F)cc1)C(=O)N(C)C (centres undefined)', 2.3),
  ('Cc1cc(C)n(S(=O)(=O)c2cc(C(=O)O)c(Cl)cc2Cl)n1', -10.2),
  ('Cc1csc(NC(=O)CCCSc2nc3ccccc3s2)n1', 0.5),
  ('COc1ccc(-c2ccc(=O)n(Cc3cc(=O)n4ccccc4n3)n2)cc1', -19.1),
  ('O=C(OC1CCOC1=O)c1ccc(S(=O)(=O)N2CCCCCC2)cc1 (centres undefined)', -2.3),
  ('CN(Cc1ccccc1)C(=O)c1ccc2c(c1)OCO2', -8.8),
  ('CCc1cc(=O)n2[nH]c(C)c(-c3ccccc3OC)c2n1', 42.7),
  ('COc1ccc2[nH]c(=O)c(CN(C(=O)c3cccnc3)c3ccccc3OC)cc2c1', -3),
  ('CC(=O)Nc1ccc(S(=O)(=O)Nc2nc3c(s2)CCCC3)cc1', 41.1),
  ('O=C(NC1CCCc2ccccc21)C1CCN(c2nnc(-n3cccc3)s2)CC1 (centres undefined)', -12.1),
  ('COC(=O)c1cccc(Oc2nc3c(c(=O)n(C)c(=O)n3C)n2C(C)C)c1', 3.9),
  ('CCn1c(SCC(=O)N2CCOCC2)nc2c(c1=O)SC(C)C2 (centres undefined)', 21.4),
  ('COc1ccc(-n2c(Cc3cccn3C)nnc2SCC(N)=O)cc1', 6.6),
  ('COc1ccccc1N1CCN(Cc2nc(N)nc(Nc3ccc(C)c(Cl)c3)n2)CC1', 17.2),
  ('CCn1cc(SCC(=O)Nc2cc(C)on2)c2ccccc21', -0.1),
  ('COc1ccccc1N1CCN(C(=O)C2CCCO2)CC1 (centres undefined)', -0.1),
  ('CCn1c(SCC(=O)Nc2ccc(Cl)cc2)nnc1C1CC1', 12.1),
  ('O=S(=O)(NCc1cn2ccsc2n1)c1ccc2c(c1)OCCO2', -3.9),
  ('Cc1oc(C(=O)O)cc1CSCc1cc(C(=O)O)c(C)o1', -21.1),
  ('Cn1nnnc1SCc1cn2cccnc2n1', 9.5),
  ('CCc1nc2scc(-c3ccccc3)c2c(=O)n1N', 0),
  ('COc1cccc(Oc2cnc(N)nc2-c2ccc(OC)cc2O)c1', 5.1);

====

A collection of molecules and their measured inhibition of aggregation
protocol.summary: reduction of polyQ htt aggregates in cells – imaging, exon1htt(103Q)mCFP cells, high-content imaging, primary screen (AID 483);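 further: compound exposure lasted 3 days before fixation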
conditions: exon1htt(103Q)mCFP cell line, aggregate imaging, at 2 µM; stronger effect = higher value
readout: inhibition of aggregation (%)

INSERT INTO results (molecule, measured_number) VALUES
  ('CCN(CCO)C(=O)CC(c1ccccc1)c1cc(Br)ccc1O (stereo not drawn)', -0.8),
  ('CN1C(=O)C(CC(=O)N2CCN(C(c3ccccc3)c3ccccc3)CC2)N(C)C1=O (stereo not drawn)', 9.8),
  ('COc1cc(NS(=O)(=O)N2CCCC2)cc(OC)c1OC', 9),
  ('O=C(Nc1ccc(-c2noc(-c3cccs3)n2)cc1)c1cccnc1', 28),
  ('COc1cc(C2c3c(oc4ccccc4c3=O)C(=O)N2c2ccc(C)cn2)ccc1O (stereo not drawn)', 8.8),
  ('CCN1C(=O)CC(C(=O)Nc2ccc(F)cc2)SC1=Nc1ccc2c(c1)OCO2 (stereo not drawn)', 1.1),
  ('O=C(CCSc1nccn1Cc1ccccc1)N1CCOCC1', -9.1),
  ('CC(=O)c1ccc(OC(=O)c2cccs2)cc1', -6.3),
  ('COc1ccc(CCNc2nc(N3CCOCC3)nc(N3CCOCC3)n2)cc1OC', 14.9),
  ('Cc1cccc(NC(=O)c2ccccc2O)c1C', -10),
  ('CCN(CC)S(=O)(=O)c1ccc2oc(C(=O)N3CCOCC3)c(C)c2c1', 5.2),
  ('Clc1ss/c(=N\c2ccccn2)c1Cl', -1.1),
  ('Cn1c(SCC(=O)N2CCN(c3cccc(Cl)c3)CC2)nnc1-c1ccncc1', -15),
  ('CCOC(=O)CSC1=C(C#N)C(c2ccc(C)o2)CC(=O)N1 (stereo not drawn)', 29.1),
  ('CCOC(=O)Cc1nnc(NC(=O)c2ncn[nH]2)s1', -4.6),
  ('Cc1ccc(S(=O)(=O)N2CCOCC2)cc1C(=O)Nc1nc(-c2cccnc2)cs1', -1.2),
  ('O=C(OCC(=O)N1CCCCCC1)c1cccs1', 3.3),
  ('COc1cccc(-c2nnc(NC(=O)Cc3cccs3)s2)c1', 22),
  ('COc1cccc(C(=O)CN2CCC(NC(=O)NC3CCCCC3)CC2)c1', 10.5),
  ('CC(CC(=O)NC1CCSC1=O)c1ccccc1 (stereo not drawn)', 8.2),
  ('O=C(Nc1cccc(F)c1)C1C2C=CC3(CN(CCCN4CCOCC4)C(=O)C13)O2 (stereo not drawn)', -27.1),
  ('COc1cc2nc(SCC(=O)NC3CC3)n(CCC3=CCCCC3)c(=O)c2cc1OC', 0.8),
  ('COc1ccc(-c2noc(CN(C(=O)C(C)(C)C)C(C)C)n2)cc1', 10.8);

Values were extracted from PubChem BioAssay.
